The measurements presented in this section are drawn from ChEMBL document CHEMBL1201862.

test system: EKVX; assay: NCI tumour cell line growth inhibition, 48 h
Activity calls are given as the source filed them. Rule as the data show it: active = GI50 up to about 1.1 µM and inactive = higher.
Please provide measured GI50 for the entries that follow.

Give the measured GI50 for O=S1(=O)OCCOS(=O)(=O)C1Cc1nc2ccccc2[nH]1 > 100 µM (inactive)

Give the measured GI50 for CCOC(=O)C1CCC(=O)N1C(=O)c1ccccc1Cl (stereo not given) > 100 µM (inactive)

Give the measured GI50 for S=c1sc2c(Cl)nc(Cl)nc2n1-c1ccccc1 61 µM (inactive)

Give the measured GI50 for Cc1cc(O)c2c(c1)C(=O)C(c1c(C)cc3c(c1O)C(=O)C1OC1C3=O)=CC2=O (stereo not given) 3.15 µM (inactive)

Give the measured GI50 for COC(=O)C1=C(C(=O)OC)SC2(S1)C(C(=O)OC)=C(C(=O)OC)Sc1c2ssc1=O 2.16 µM (inactive)

Give the measured GI50 for Cc1ccc(C(=O)NCc2ccccc2)cc1/N=N/N(C)C > 100 µM (inactive)

Give the measured GI50 for CC(=O)OCCCCn1cc(Cn2ccc(=O)n(Cc3cn(CCCCOC(C)=O)nn3)c2=O)nn1 > 100 µM (inactive)

Give the measured GI50 for CC(=O)Nc1ccc(NCC(=O)Nn2cnc3ccc(S(=O)(=O)Nc4ccc(NC(C)=O)cc4)cc3c2=O)cc1 > 100 µM (inactive)

Answer for every listed entry: what is its GI50? The entries follow.
1. O=C(O)[C@@H]1C2CC([C@@H]1C(=O)O)[C@H](N1C(=O)CCC1=O)[C@@H]2Br (stereo not given in full)
2. O=C1C2=C(C3=NCCc4c[nH]c1c43)c1c(Br)cc(Br)cc1CCN2

["> 100 µM (inactive)", "3.01 µM (inactive)"]

---

test system: SNB-19; experiment: NCI tumour cell line growth inhibition, 48 h
Active and inactive are the calls of the source. Cut-off read from the data, not from the text of the source: active = GI50 up to about 1.1 µM and inactive = higher.
measured quantity: GI50

Give the measured GI50 for Cc1ccn2c(c1)nc1nc3ccccc3nc12 > 100 µM (inactive)

Answer for every listed entry: what is its GI50? The entries follow.
1. O=C(Cc1ccc(Cl)c(Cl)c1)N(CCc1ccc(Cl)c(Cl)c1)CCN1CCCC1
2. Cc1ccc(Nc2ccc(Nc3ccc(C)cc3S(=O)(=O)O)c3c2C(=O)c2ccccc2C3=O)c(S(=O)(=O)O)c1
3. CN(c1ccc(Cl)cc1)S(=O)(=O)c1cccc([N+](=O)[O-])c1
4. O=c1ccn2n1CCCCC2

["2.15 µM (inactive)", "> 100 µM (inactive)", "> 100 µM (inactive)", "> 100 µM (inactive)"]

Answer for every listed entry: what is its GI50? The entries follow.
1. CC(=O)NNc1nc(C)c(C(=O)NNC(=O)C(=O)Nc2cccc(C(C)=O)c2)s1
2. CC(=O)Oc1ccc2c(C)cc(=O)oc2c1OC(C)=O
3. COc1ccc(/N=N/C(=O)NC(CC(C)C)C(=O)NC(Cc2ccccc2)C(=O)O)cc1 (stereo not given)

["41 µM (inactive)", "41.3 µM (inactive)", "72.9 µM (inactive)"]

Answer for every listed entry: what is its GI50? The entries follow.
1. CCc1cc(Cc2ccc(C)c(NC(=O)C(=O)C3C(=O)NC(=O)NC3=O)c2CC)cc(C)c1NC(=O)C(=O)C1C(=O)NC(=O)NC1=O
2. N#CCCN(CCC#N)c1ccc(/C=C2\N=C(c3ccccc3)N(c3ccc(Cl)cc3)C2=O)cc1

1. > 100 µM (inactive)
2. > 100 µM (inactive)

---

system: MDA-MB-231; experiment: NCI tumour cell line growth inhibition, 48 h
Active and inactive are the calls of the source. No stated cut-off is given here; in the data, active = GI50 up to about 1.1 µM and inactive = higher.
Write down one outcome, taken from t = active, f = inactive

Record excerpt, results attached:
For OC1(c2ccc3ccccc3c2)c2c(c3ccccc3c3ccccc23)C2=NCCN21 (stereo not given) , which call appears in the assay record? f

For CN(N=O)C(=O)Nc1c[nH]c(=O)[nH]c1=O , which call appears in the assay record? f

For Cc1ccc(NC(=O)CC(=O)N2N=C(c3ccccc3)C(/N=N/c3ccc(S(=O)(=O)CCOS(=O)(=O)O)cc3)C2=O)cc1 (stereo not given) , which call appears in the assay record? f

For CC(=O)Nc1cc2nc3n(c2cc1C)CCC3OC(C)=O (stereo not given) , which call appears in the assay record? f

Next molecule, please.
For CC(=O)O[C@H]1C(=O)[C@@]2(C)[C@H]([C@H](OC(=O)c3ccccc3)[C@]3(O)C[C@H](OC(=O)[C@H](O)[C@@H](NC(=O)c4ccccc4)c4ccccc4)C(C)=C1C3(C)C)[C@]1(OC(C)=O)CO[C@@H]1C[C@@H]2O [PACLITAXEL] , which call appears in the assay record? t

---

system: HT-29; assay: NCI tumour cell line growth inhibition, 48 h
Active and inactive are the calls of the source. Cut-off read from the data, not from the text of the source: active = GI50 up to about 1.1 µM and inactive = higher.
Please provide measured GI50 for the entries that follow.

Give the measured GI50 for O=[N+]([O-])c1ccc(S(=O)(=O)n2c3ccc(Br)cc3c3nc4ccccc4nc32)cc1 > 100 µM (inactive)

Give the measured GI50 for Cc1ccn2c(c1)nc1nc3ccccc3nc12 > 100 µM (inactive)

Give the measured GI50 for CC(C)CCC(=O)c1ccoc1 > 100 µM (inactive)

Give the measured GI50 for CC(C)=CCCC(C)C1=C(O)C(=O)C(C)=CC1=O (stereo unspecified) 16.3 µM (inactive)

Give the measured GI50 for Cc1cccc2c1C(=O)OC2(C)c1cccc2ccccc12 (stereo unspecified) 30.5 µM (inactive)

Answer for every listed entry: what is its GI50? The entries follow.
1. COc1ccc(N2C(=O)C(C)SC2c2cc3cc(Br)ccc3nc2Cl)cc1 (stereo unspecified)
2. CCOC(=O)CCC(NC(=O)C(CCC(=O)OCC)NC(=O)C(Cc1ccc([N+](=O)[O-])cc1)NC(C)=O)C(=O)NNC(=O)OC(C)(C)C (stereo unspecified)
3. CCOC(=O)c1cnn2c1ncc1c(=O)n(NC(N)=O)ccc12

1: 32.4 µM (inactive); 2: > 100 µM (inactive); 3: > 100 µM (inactive)

Answer for every listed entry: what is its GI50? The entries follow.
1. O=C(Cc1ccc(Cl)c(Cl)c1)N(CCc1ccc(Cl)c(Cl)c1)CCN1CCCC1
2. CC(=O)C1C(=O)C(=O)N(c2ccccc2)C1=O (stereo unspecified)

1. 1.86 µM (inactive)
2. > 100 µM (inactive)

Give the measured GI50 for CCn1c2c(c3ccccc31)[C@@H](c1ccc(Cl)cc1)CC1C(=O)N(c3ccccc3)C(=O)C21 (stereo partly specified) 65.5 µM (inactive)

---

tested on: UO-31; test: NCI tumour cell line growth inhibition, 48 h
The source made the active and inactive calls. Rule as the data show it: active = GI50 up to about 1.1 µM and inactive = higher.
Please provide measured GI50 for the entries that follow.

Example results:
Give the measured GI50 for COc1cc(Br)c(CC2(C#N)c3ccccc3C3C(N2C(=O)c2ccccc2)C3(Cl)Cl)cc1OC (stereo not given) 50.6 µM (inactive)

Give the measured GI50 for CC[C@@H]1C[C@H]2CC3c4[nH]c5ccc(O)cc5c4CCN(C2)C31 > 100 µM (inactive)

Give the measured GI50 for O=C1C(NS(=O)(=O)c2ccccc2)=C(n2cnc3ccccc32)C(=O)c2ccccc21 75.3 µM (inactive)

Give the measured GI50 for COC(=O)C1(Cc2ccc3c(c2)CCC3)Cc2ccccc2C1=O (stereo not given) 17.1 µM (inactive)

More entries:
Give the measured GI50 for CN1C(=O)C(CCO)(C(C)(C)C)c2ccccc21 (stereo not given) > 100 µM (inactive)

---

tested on: SN12C; test: NCI tumour cell line growth inhibition, 48 h
The source made the active and inactive calls. No stated cut-off is given here; in the data, active = GI50 up to about 1.1 µM and inactive = higher.
measured quantity: GI50

Example results:
Name the recorded GI50 of CC1=CC(=O)NP(=O)(C23CC4CC(CC(C4)C2)C3)N1 (stereo unspecified) , assay system SN12C. > 100 µM (inactive)

Name the recorded GI50 of CC(C)C[C@H]1[C@@H](OCc2ccccc2)COS(=O)(=O)N1[C@H](C)c1ccccc1 , assay system SN12C. 75.3 µM (inactive)

Name the recorded GI50 of CN(N=O)C(=O)Nc1c[nH]c(=O)[nH]c1=O , assay system SN12C. > 100 µM (inactive)

Name the recorded GI50 of CC(C)(C)OC(=O)N1CCC(C(=O)O)CC1 , assay system SN12C. > 100 µM (inactive)

Name the recorded GI50 of COc1cc(/C=N\c2nc(-c3ccc(NS(=O)(=O)c4ccc(Cl)c(OC)c4)cc3)cs2)ccc1O , assay system SN12C. 42.3 µM (inactive)

Answer for every listed entry: what is its GI50? The entries follow.
1. CN(c1ccc(Cl)cc1)S(=O)(=O)c1cccc([N+](=O)[O-])c1
2. C=CCc1cc(OC)c2c(c1)C(OC)CC(c1ccc(OC)c(OC)c1)O2 (stereo unspecified)

> 100 µM (inactive)
> 100 µM (inactive)

---

system: KM12; assay: NCI tumour cell line growth inhibition, 48 h
Activity calls are given as the source filed them. Rule as the data show it: active = GI50 up to about 1.1 µM and inactive = higher.
Please provide measured GI50 for the entries that follow.

Example results:
Name the recorded GI50 of Cc1ccc(Nc2ccc(Nc3ccc(C)cc3S(=O)(=O)O)c3c2C(=O)c2ccccc2C3=O)c(S(=O)(=O)O)c1 , assay system KM12. > 100 µM (inactive)

Name the recorded GI50 of O=C1N/C(=N/N=C\C(O)C(O)C(O)C(O)CO)N/C1=C\c1ccc(Cl)cc1 (centres undefined) , assay system KM12. 22.1 µM (inactive)

Name the recorded GI50 of CC(=O)Nc1ccccc1-c1cnc2ccccc2n1 , assay system KM12. > 100 µM (inactive)

Name the recorded GI50 of CN1c2ccccc2C(=O)NC12CCN(CC1COc3ccccc3O1)CC2 (centres undefined) , assay system KM12. 32.6 µM (inactive)

Name the recorded GI50 of CC[C@@H]1C[C@H]2CC3c4[nH]c5ccc(O)cc5c4CCN(C2)C31 , assay system KM12. > 100 µM (inactive)

Name the recorded GI50 of N#Cc1ccccc1NC(=O)C(=O)C1NC(=S)NC1=O (centres undefined) , assay system KM12. > 100 µM (inactive)

Answer for every listed entry: what is its GI50? The entries follow.
1. CC(C)(C)n1c(=O)n(-c2ccccc2)n(C(C)(C)C)c1=O
2. c1ccc(N/N=N/c2ccc(-c3nc4ccccc4o3)cc2)nc1

1. > 100 µM (inactive)
2. 37.8 µM (inactive)
